- TEST PROTOCOL: HoxA9-arrested leukemia cell differentiation promoters – flow cytometry, MLPCN library, primary screen (AID 624256);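 as to GFP+ MAC1+ double positive: cells exposed to compound for four days before flow analysis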
- SETTINGS: ER-HoxA9 myeloid progenitors, lysozyme-GFP differentiation, at 10 µM; measured here: differentiation confirmed by MAC1 staining, stronger effect = higher value
The campaign covered roughly 360,000 compounds. About 3,700 (1%) were called active. About 2% were inconclusive and are not listed. The entries come from a sample that favours actives as a whole.
Grouping key: GFP+ MAC1+ double positive. Bins: low band: < 0.5%; middle band: ≥ 0.5% and < 1%; high band: ≥ 1%

Any idea which band CN1OC[C@@H]2CN(S(=O)(=O)c3cccc4ccccc34)[C@H](c3ccc(N4CCCCC4)cc3)C[C@@H]21 is in?
middle band

----------
- TEST PROTOCOL: HoxA9-arrested leukemia cell differentiation promoters – flow cytometry, MLPCN library, primary screen (AID 624256)
- SETTINGS: ER-HoxA9 myeloid progenitors, lysozyme-GFP differentiation, at 10 µM; measured here: differentiation confirmed by MAC1 staining, stronger effect = higher value
Hit rate of the full screen: of about 360,000 compounds, about 3,700 (1%) were called active. Roughly 2% stayed inconclusive and do not appear here. The sample holds actives, similar compounds and a random draw of the others, so the mix is not that of the screen.
MEASURED PROPERTY: GFP+ MAC1+ double positive (%)
Just the number in %, nothing appended.

As a guide, the following entries are already answered.
COMPOUND | READOUT NUMBER
Cc1cc(=O)oc(C)c1C(=O)Nc1cnc2ccccc2c1 | 1
CC(=O)c1ccc(S(=O)(=O)N2CCN(c3nc4c(C)c(C)ccc4cc3C#N)CC2)cc1 | 0.3
CC(C)(O)C#Cc1ccc(CNC[C@H]2O[C@@H](n3cnc4c(=O)[nH]c(N)nc43)[C@H](O)[C@@H]2O)s1 | 0.8
Cc1ccc(S(=O)(=O)N2[C@@H](Cc3ccccc3)CO[C@H]2CC(=O)OCc2ccccc2)cc1 | 5.9
Cc1ccc(S(=O)(=O)N2CCN(c3ccccc3)CC2)cc1C | 0.5
CC1CCCCN1C(=O)Cn1c(=O)oc2cc(S(=O)(=O)N3CCCCC3)ccc21 (stereo unspecified) | 6.7
Cc1ccc(S(=O)(=O)C(C#N)c2nc3ccccc3nc2N2CCCC2)cc1C (stereo unspecified) | 1.7
CN(Cc1ccccc1F)c1cc2c(c3c1ccn3C)C1CCC2O1 (stereo unspecified) | 2.1
CCc1c(C)sc(NC(=O)c2cccs2)c1C(N)=O | 7.9
Cc1cc(=O)oc(C)c1C(=O)NCc1ccc(F)cc1 | 9.2

For Cc1cc(=O)oc(C)c1C(=O)NCCN(C)Cc1ccccc1 , what is its reported GFP+ MAC1+ double positive?
0.6

----------
- TEST PROTOCOL: HoxA9-arrested leukemia cell differentiation promoters – flow cytometry, MLPCN library, primary screen (AID 624256)
- SETTINGS: ER-HoxA9 myeloid progenitors, lysozyme-GFP differentiation, at 10 µM
About 3,700 (1%) of roughly 360,000 compounds were called active. Not shown: some 2% with an inconclusive outcome.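 The calls were made as follows: active = normalized GFP-positive differentiation at or above the plate's own cutoff, the solvent-only control mean plus 3 SD; inconclusive = no clear call, values can overlap the other calls; inactive = the rest.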 The sample holds actives, similar compounds and a random draw of the others, so the mix is not that of the screen.
Would you mind answering with one of these outcomes? active, inactive

Consider the following illustrative entries.
MOLECULE | LABEL VALUE
CC(=O)C[C@@H]1OC[C@H](CO)N1S(=O)(=O)c1ccc(C)cc1 | inactive
C=C1C(=O)[C@]23C[C@H]1CCC2[C@@]1(C)C(C[C@@H]3O)[C@](C)(C(=O)O)CC[C@@H]1O (stereo not given in full) | active
CCc1noc(C)c1C(=O)Nc1nc(-c2ccccc2)cs1 | active
Cc1ccc(CSCC2Nc3ccc(C(=O)N4CCN(c5ccc(F)cc5)CC4)cc3NC2=O)cc1 (stereo not given) | inactive

Let us examine a further case.
I'd appreciate the recorded outcome for Cc1ccc(-c2csc(NC(=O)C3=COCCO3)n2)cc1C from this test.
inactive

----------
- TEST PROTOCOL: HoxA9-arrested leukemia cell differentiation promoters – flow cytometry, MLPCN library, primary screen (AID 624256);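 as to GFP+ MAC1+ double positive: cells exposed to compound for four days before flow analysis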
- SETTINGS: ER-HoxA9 myeloid progenitors, lysozyme-GFP differentiation, at 10 µM; measured here: differentiation confirmed by MAC1 staining, stronger effect = higher value
In all, about 360,000 compounds went through this assay and about 3,700 (1%) were called active. Not shown: some 2% with an inconclusive outcome. The list comes from a sample in which actives are over-represented; it also holds close analogues and randomly drawn compounds.
Each entry below carries its recorded GFP+ MAC1+ double positive.
Just the number in %, nothing appended.

MOLECULE | UNIT TAG | READOUT NUMBER
COC(=O)Cc1ccc(NC(=S)NCc2ccco2)cc1 | % | 0.6
CC(NC(=O)c1cccc(S(=O)(=O)N2CCc3ccccc3C2)c1)c1ccco1 (stereo unspecified) | % | 0.3
O=C(Cc1ccc(-c2ccccc2)cc1)NC(c1ccccc1)c1ccccc1 | % | 0.3
COc1ccc(CC(N)c2csc(NC(=O)NC(c3ccccc3)c3ccccc3)n2)cc1 (stereo unspecified) | % | 1.7
O=C(O)Cc1ccc(NCc2ccccc2Cl)cc1 | % | 0.6

Moving on to another molecule below.
For CCOC(=O)c1c(-c2cccc(C)c2)csc1NC(=O)c1c(-c2ccccc2)noc1C , what is its reported GFP+ MAC1+ double positive?
15.3

----------
- TEST PROTOCOL: HoxA9-arrested leukemia cell differentiation promoters – flow cytometry, MLPCN library, primary screen (AID 624256);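 as to GFP+ MAC1+ double positive: cells exposed to compound for four days before flow analysis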
- SETTINGS: ER-HoxA9 myeloid progenitors, lysozyme-GFP differentiation, at 10 µM; measured here: differentiation confirmed by MAC1 staining, stronger effect = higher value
Hit rate of the full screen: of about 360,000 compounds, about 3,700 (1%) were called active. Another 2% or so got no clear call; they are omitted. The sample holds actives, similar compounds and a random draw of the others, so the mix is not that of the screen.
Grouping key: GFP+ MAC1+ double positive. Bins: low-valued: < 0.5%; mid-valued: ≥ 0.5% and < 2%; high-valued: ≥ 2%

COMPOUND | LABEL VALUE
CC1CCCCC1NC(=O)COC(=O)Cc1ccc(Cl)cc1 (stereo not given) | mid-valued
CC(C)n1cnc2c(NCc3ccccc3)cc(OCC3CCN(C)CC3)cc21 | high-valued
O=C(C(=O)N1CCC(c2ccccc2)CC1)c1ccccc1 | high-valued
CC(=O)N1Cc2cc(C(=O)NCc3cccc(F)c3)nc(-c3cccc(C4=CCCC4)c3)c2[C@H]1CCO | low-valued
CN(C)c1nccc(NCc2ccccc2)c1C#N | low-valued
COC(=O)C1(C(=O)OC)C[C@H](c2ccccc2)N(Cc2ccccc2OC)[C@@H]1c1ccccc1 | mid-valued
COc1ccc(COC[C@H](CC(C)C)N2CCN(C(=O)c3cccc(C(F)(F)F)c3)CCC2=O)cc1 | low-valued
CC1CCCC(NC(=O)CN2CCN(Cc3ccc(Cl)cc3)C2=O)C1C (stereo not given) | high-valued

Let us examine a further case.
Any idea which band COc1ccc(-c2cc3c(c4c2ccn4C)C2CCC3C2)cn1 (stereo not given) is in?
mid-valued

----------
Each entry below carries its recorded GFP+ MAC1+ double positive.
- TEST PROTOCOL: HoxA9-arrested leukemia cell differentiation promoters – flow cytometry, MLPCN library, primary screen (AID 624256);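 as to GFP+ MAC1+ double positive: cells exposed to compound for four days before flow analysis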
- SETTINGS: ER-HoxA9 myeloid progenitors, lysozyme-GFP differentiation, at 10 µM; measured here: differentiation confirmed by MAC1 staining, stronger effect = higher value
Among all 360,000 compounds or so, about 3,700 (1%) were called active. Roughly 2% stayed inconclusive and do not appear here. Shown is part of a subset that was picked to be rich in actives.
Just the number in %, nothing appended.

As a guide, the following entries are already answered.
COMPOUND | GFP+ MAC1+ double positive / %
CCCc1cc(-c2n[nH]c(=S)n2Cc2ccccc2)cs1 | 5.8
COc1ccc(C2CC(c3cccc(OC)c3)=NN2c2ccc(S(N)(=O)=O)cc2)cc1 (stereo unspecified) | 8.9
COc1cc(-c2n[nH]c(=S)n2Cc2ccccc2)cc(OC)c1OC | 22.5
Oc1ccccc1C1=NN(c2ccccc2)C(c2ccccc2)C1 (stereo unspecified) | 0.2
Nc1cc(=O)n(Cc2ccccc2)c(=O)n1Cc1ccccc1 | 1.4
O=C(N/N=C/c1ccccc1O)/C(=C/c1ccccc1)CCO | 4.1

For CC(C)(C)C1CCC(=O)N2CCC[C@]2(c2ccccc2)C1 (stereo partly specified) , what is its reported GFP+ MAC1+ double positive?
1

Another compound to look at: O=C(NCc1cccnc1)c1cc(C2CCCN(C(=O)C3CCCCC3)C2)on1 (stereo unspecified)
0.6

Another compound to look at: Cc1ccc(C2CC(c3cccc(NS(C)(=O)=O)c3)=NN2S(C)(=O)=O)cc1 (stereo unspecified)
0.5

Another compound to look at: Cc1ccc2cccc([N+](=O)[O-])c2n1
0.8

Another compound to look at: CC(C)CN1C(=O)CN(S(C)(=O)=O)CC1(C)C(=O)NCc1ccccc1 (stereo unspecified)
1.1
